Test system: Bs-preQ1-RS (RNA, riboswitch) AGAGGUUCUAGCUACACCCUCUAUAAAAAACUAA
Experiment: UV photocrosslinking, denaturing PAGE
Conditions: 100 mM K+, 2 mM Mg2+; 50 mM Tris pH 7.5, 5% DMSO, room temperature; 5 µM RNA, 250 µM compound; covalent
Entries and their measured % Crosslink efficiency follow.
A number alone suffices; assume %.

# example entries with known answers
C#CCCC1(CCNCc2c[nH]c3nc(N)[nH]c(=O)c23)N=N1 ... 31.3
Nc1nc2[nH]cc(CNCCOCCOCCNCc3ccc(C4(C(F)(F)F)N=N4)cc3)c2c(=O)[nH]1 ... 22.0
CC1(CCC(=O)NCc2c[nH]c3nc(N)[nH]c(=O)c23)N=N1 ... 49.2
Nc1nc2[nH]cc(CNCCOCCOCCOCCNCc3ccc(C4(C(F)(F)F)N=N4)cc3)c2c(=O)[nH]1 ... 19.4

Turning to the following compound.
**Query** Recorded % Crosslink efficiency of `C#CCCC1(CCC(=O)NCc2c[nH]c3nc(N)[nH]c(=O)c23)N=N1` , please.
**Result** 39.9
